As shown below, each of these compounds has a reported growth value.
Test system: SW-620 colon
protocol_description: NCI-60 one-dose screen, 48 h (100 = growth as untreated, 0 = no growth, -100 = all killed)
condition_parameters: 10 µM
About 83,000 compounds went through this panel and 20% of them were active in at least one assay; those are over-represented in the sample as a whole. Activity calls are given as the source filed them. The calls were made as follows: active = growth percent below 10; inactive = the rest.

Record `CCCC(=O)Nc1ccc2c(c1)CN1C(=O)c3ccccc3C1=N2` , field growth: 105% (inactive)

Record `O=C1OC[C@H]2[C@H](c3ccc(O)c(O)c3)c3cc(O)c(O)cc3C[C@H]12` , field growth: 107% (inactive)

Record `COc1cc(C(=O)N/N=C/c2cccc([N+](=O)[O-])c2)cc(OC)c1OC` , field growth: 23.8% (inactive)

Record `O=C(O)c1ccc(S(=O)(=O)O)cc1` , field growth: 104% (inactive)

Record `CC(C)=NNC(N)=S` , field growth: 68.7% (inactive)

Record CC1(C)/C(=C\CO)C2CCC1C2 (stereo not drawn) , field growth: 106% (inactive)

Record `O=[N+]([O-])c1ccc(N=Nc2ccccc2)cc1` , field growth: 115% (inactive)

Record `N=c1c(C(=O)OCc2ccccc2)ncc(CCl)n1O` , field growth: 86.9% (inactive)

Record CCC(C)(O)c1ccc(C)cc1 (stereo not drawn) , field growth: 98.2% (inactive)

Record `CCOC(=O)c1[nH]c(C)c(C(=O)O)c1C` , field growth: 107% (inactive)

Record CN1C(=O)CN2CCc3ccccc3C2c2cc(Cl)ccc21 (stereo not drawn) , field growth: -33.6% (active)

Record `N#CCCc1ccc(O)cc1` , field growth: 102% (inactive)

Record `CN(C)C(C)(C)CC(C)(C)C` , field growth: 101% (inactive)

====

Tested on: UACC-257 melanoma
protocol_description: NCI-60 one-dose screen, 48 h (100 = growth as untreated, 0 = no growth, -100 = all killed)
condition_parameters: 10 µM
About 83,000 compounds went through this panel and 20% of them were active in at least one assay; those are over-represented in the sample as a whole.
property_measured: growth (%)
Output spec: scalar in %, unitless text.

Record `Cc1cc(=O)n(-c2ccc(F)cc2)[nH]1` , field growth: 103

====

As shown below, each of these compounds has a reported growth value.
Tested on: NCI/ADR-RES ovarian
protocol_description: NCI-60 one-dose screen, 48 h (100 = growth as untreated, 0 = no growth, -100 = all killed)
condition_parameters: 10 µM
The panel holds about 83,000 compounds, 20% with a hit somewhere; the sample as a whole holds those more often.
Output spec: scalar in %, unitless text.

Please review the entries below; each comes with its answer.
CC1CCC2C(C)(C)C3CC12CC1OC13C (centres undefined) : 107
OCCN1CCOCC1 : 116
O=[N+]([O-])c1ccc(-c2ncc(-c3ccc(Br)cc3)o2)cc1 : 104
CCN(CC)C(=O)/C=C(/C)c1ccccc1 : 102
C=CC(O)CCC (centres undefined) : 103

Record `CC1(C)Nc2cccc3c(N=Nc4ccc(N=Nc5ccccc5)c5ccccc45)ccc(c23)N1` , field growth: 98.1

Record `COc1ccccc1NC(=O)c1cc2cc(Br)ccc2cc1O` , field growth: 5.05

Record `CCCNC(=O)c1ccc(S(N)(=O)=O)cc1` , field growth: 99.5

Record `Oc1ccccc1O` , field growth: 90.2

Record `O=C(O)CSCSCC(=O)O` , field growth: 109

Record `CNc1nc(NC)c2cn[nH]c2n1` , field growth: 108

Record `CN(C)Cc1cc(C(C)(C)CC(C)(C)C)ccc1O` , field growth: 91.5

Record `CCOC(=O)C(=O)C=P(c1ccccc1)(c1ccccc1)c1ccccc1` , field growth: 103

Record `C/C(=N/NC(N)=O)c1ccco1` , field growth: 101
